- assay_method_text: in vitro
- condition_notes: human, hela cells, % viability
Readings of viability at 28.5 h, 10 µM for the listed compounds
Respond with the bare value in %.

// worked examples, viability at 28.5 h, 10 µM included
- compound: "COc1nccnc1OC1CCN(CCCC#N)CC1 [CBK084255]"
  units_label: "%"
  viability at 28.5 h, 10 µM: 90
- compound: "CCCCC1CCC(c2noc(-c3ccc(F)cc3)n2)CC1 (stereo not shown) [CBK027363]"
  units_label: "%"
  viability at 28.5 h, 10 µM: 90.3
- compound: "O=C(NCc1cccnc1)N1CCCC(CO)C1 (stereo not shown) [CBK156037]"
  units_label: "%"
  viability at 28.5 h, 10 µM: 90.5

input: In one line, give reported viability at 28.5 h, 10 µM of the entry CNC(=O)c1ccc(OC)c(S(=O)(=O)NC)c1 [CBK270153] .
output: 88.9

###

- assay_method_text: in vitro
- condition_notes: human, hela cells, % viability
Listing of entries alongside the reported viability at 28.5 h, 10 µM.
State the answer as a number, implicitly in %.

- compound: "CCC(=O)NCc1ccc(-c2nc3ncccc3o2)cc1 [CBK270220]"
  viability at 28.5 h, 10 µM, %: 108
- compound: "O=C(Cn1c(-c2cccs2)cc2cccnc21)N1CCC(O)CC1 [CBK282458]"
  viability at 28.5 h, 10 µM, %: 113

Next:
input: Dear colleague, please send me the reported viability at 28.5 h, 10 µM for O=C(O)CC1SC(Nc2cccc(Cl)c2)=NC1=O (stereo not drawn) [CBK131683] when you can.
output: 105
